// reported GI50 per item
- Tested on: M14
- assay_summary: NCI tumour cell line growth inhibition, 48 h
Activity calls are given as the source filed them. Cut-off read from the data, not from the text of the source: active = GI50 up to about 1.1 µM and inactive = higher.

[
  {
    "molecule": "Cc1ccc(S(=O)(=O)N2CCN(S(=O)(=O)c3ccc(C)cc3)CCN(S(=O)(=O)c3ccc(C)cc3)Cc3cc(Br)c(Br)cc3CN(S(=O)(=O)c3ccc(C)cc3)CC2)cc1",
    "GI50": "19.1 µM (inactive)"
  },
  {
    "molecule": "CC(=O)OCCOCNC(=S)N/N=C(\\C)c1ccco1",
    "GI50": "> 100 µM (inactive)"
  },
  {
    "molecule": "N#CC(/C(=N/NC(N)=S)C(=O)Nc1cccc(Cl)c1)c1ccccc1 (stereo unspecified)",
    "GI50": "> 100 µM (inactive)"
  },
  {
    "molecule": "CC1CC2C3CCC4=CC(=O)C=CC4(C)C3(F)C(O)CC2(C)C1(O)C(=O)COP(=O)(O)O (stereo unspecified)",
    "GI50": "> 100 µM (inactive)"
  },
  {
    "molecule": "Cc1cc(S(=O)(=O)Nc2nc(N)n(-c3ccccn3)n2)c(S)cc1Cl",
    "GI50": "> 100 µM (inactive)"
  },
  {
    "molecule": "COC(=O)C1C(=O)C(C(=O)OC)C2CCC1N2C (stereo unspecified)",
    "GI50": "29.8 µM (inactive)"
  }
]

---

- Tested on: UACC-257
- assay_summary: NCI tumour cell line growth inhibition, 48 h
Activity calls are given as the source filed them. Cut-off read from the data, not from the text of the source: active = GI50 up to about 1.1 µM and inactive = higher.
// reported GI50 per item

[
  {
    "compound": "O=c1c(C(c2ccc3ccccc3c2)c2c(O)oc3ccccc3c2=O)c(O)oc2ccccc12",
    "GI50": "51.5 µM (inactive)"
  },
  {
    "compound": "COC(=O)C1C(=O)C(C(=O)OC)C2CCC1N2C (centres undefined)",
    "GI50": "83.4 µM (inactive)"
  },
  {
    "compound": "COc1ccc2c(c1)CC1COc3cc(OC)ccc3C1O2 (centres undefined)",
    "GI50": "> 100 µM (inactive)"
  },
  {
    "compound": "CCOC(=O)/C(I)=C/c1cc(OC)c(OC)c(OC)c1",
    "GI50": "10.8 µM (inactive)"
  },
  {
    "compound": "O=C(Nn1c(-c2ccccc2)nc2ccccc2c1=O)c1ccc([N+](=O)[O-])cc1",
    "GI50": "> 100 µM (inactive)"
  },
  {
    "compound": "CC(C)[Si](OC1=CCC[C@H]2NC(=O)[C@@H](Cc3ccc([N+](=O)[O-])cc3)[C@@]12C)(C(C)C)C(C)C",
    "GI50": "5.47 µM (inactive)"
  },
  {
    "compound": "CCN(CC)CCNC(=O)c1cn2c(ccc3sc4ccccc4c(=O)c32)n1",
    "GI50": "14.3 µM (inactive)"
  },
  {
    "compound": "CCOC(=O)c1c(SCC#N)n(-c2ccccc2)c(=S)n(-c2ccccc2)c1=O",
    "GI50": "61.2 µM (inactive)"
  },
  {
    "compound": "Cc1cc(=O)n2nc(CSc3nnc(Sc4cc(O)ccc4O)s3)sc2n1",
    "GI50": "> 100 µM (inactive)"
  },
  {
    "compound": "[O-][S+]1Cc2ccccc2CSS1 (centres undefined)",
    "GI50": "14.5 µM (inactive)"
  },
  {
    "compound": "C=C1CCC(O)C/C1=C/C=C1\\CCCC2(C)C1CCC2C(C)CCCC(C)C (centres undefined)",
    "GI50": "17 µM (inactive)"
  },
  {
    "compound": "CCOC(=O)CCC(NC(=O)N1CCN(c2c(C)nc(C)nc2O)CC1)C(=O)OCC (centres undefined)",
    "GI50": "> 100 µM (inactive)"
  },
  {
    "compound": "COC(=O)[C@@]12CC3CN(Cc4c1[nH]c1ccccc41)C2CC3=O",
    "GI50": "> 100 µM (inactive)"
  },
  {
    "compound": "COC1=CC(C2c3cc4c(cc3[C@@H](Nc3ccc([N+](=O)[O-])cc3)C3COC(=O)[C@H]23)OCO4)=CC(=O)C1=O (some centres undefined)",
    "GI50": "16.1 µM (inactive)"
  },
  {
    "compound": "O=C(O)c1ccc(CNCc2ccccc2)cc1",
    "GI50": "> 100 µM (inactive)"
  },
  {
    "compound": "O=C(CCN1CCCCC1)c1csc2ccccc12",
    "GI50": "> 100 µM (inactive)"
  },
  {
    "compound": "CC(=O)OC[C@@H](OC(C)=O)[C@H](OC(C)=O)[C@@H]1OC(C)(C)O[C@@H]1C1SCCCS1",
    "GI50": "> 100 µM (inactive)"
  },
  {
    "compound": "OC(C/C(=N\\N=C(/CC(O)(C(F)(F)F)C(F)(F)F)c1ccccc1)c1ccccc1)(C(F)(F)F)C(F)(F)F",
    "GI50": "> 10 µM (inactive)"
  },
  {
    "compound": "C/C=C1\\C(=O)O[C@H]2C/C(C)=C/CC/C(C)=C/CC[C@@]3(C)O[C@@H]3C[C@@H]12",
    "GI50": "> 100 µM (inactive)"
  },
  {
    "compound": "CCCCCC(/C=C/[C@@H]1[C@H]2CC(=O)O[C@H]2C[C@H]1N1CCOCC1)OC1CCCO1 (some centres undefined)",
    "GI50": "> 100 µM (inactive)"
  },
  {
    "compound": "CC(C)C1C(=O)NC(CO)Cc2c[nH]c3c(C(c4c[nH]c5ccccc45)C(O)CO)ccc(c23)N1C (centres undefined)",
    "GI50": "> 100 µM (inactive)"
  },
  {
    "compound": "CC1CC(=O)Nc2nc3ccccc3n21 (centres undefined)",
    "GI50": "> 100 µM (inactive)"
  },
  {
    "compound": "N#CC(/C(CCCC(=O)Nc1cccc([N+](=O)[O-])c1)=N/NC(=O)c1cc2ccccc2cc1O)c1ccccc1 (centres undefined)",
    "GI50": "24.4 µM (inactive)"
  },
  {
    "compound": "CN1C/C(=C\\c2cccs2)C(=O)/C(=C/c2cccs2)C1",
    "GI50": "30 µM (inactive)"
  },
  {
    "compound": "Oc1ccccc1-n1nc2ccc3nonc3c2n1",
    "GI50": "> 100 µM (inactive)"
  },
  {
    "compound": "N#Cc1c(Cl)cc(C#N)n2c1nc1ccccc12",
    "GI50": "14.9 µM (inactive)"
  },
  {
    "compound": "COC(=O)C1C(O)C(C)C(O)C(C)C=C(C)C2=C3C(=C(C)C(=O)c4c(O)c(c(C)c(OC(C)=O)c43)NC(=O)C(C)=C/C=C\\C(C)C(O)C(C)C1O)OCO2 (centres undefined)",
    "GI50": "13.4 µM (inactive)"
  },
  {
    "compound": "Cc1cc2c(cc1-c1cc3c(cc1C)C(C(C)C)=C(O)C(=O)/C3=C\\NCC1CCCN3CCCCC13)/C(=C/NCC1CCCN3CCCCC13)C(=O)C(O)=C2C(C)C (centres undefined)",
    "GI50": "15.3 µM (inactive)"
  },
  {
    "compound": "CC(C)CC[C@H](O)[C@@H](C)[C@H]1[C@@H](OC2OC(C)C(O)C(O)C2O)C[C@H]2[C@@H]3CC=C4C[C@@H](O)CC[C@]4(C)[C@H]3[C@@H](O)C[C@]12C (some centres undefined)",
    "GI50": "1.12 µM (inactive)"
  }
]
